# System: Heat shock cognate 71 kDa protein (Homo sapiens)
# Assay details: Binding affinity to human truncated HSC70 NBD (1 to 381 residues) by SPR analysis
# Measurement parameters: read-out: Kd
Response field label: string, one of rule met (Kd strictly below 4 µM) or rule not met.

Worked cases, answers included:
{"Compound": "Nc1ncnc2c1nc(N)n2[C@@H]1O[C@H](CO)[C@@H](O)[C@H]1O", "Class assignment": "rule not met"}
{"Compound": "CN(C)c1nc2c(N)ncnc2n1[C@@H]1O[C@H](CO)[C@@H](O)[C@H]1O", "Class assignment": "rule not met"}
{"Compound": "CNc1nc2c(N)ncnc2n1[C@@H]1O[C@H](CO)[C@@H](O)[C@H]1O", "Class assignment": "rule not met"}
{"Compound": "Cc1ccc(CNc2nc3c(N)ncnc3n2[C@@H]2O[C@H](CO)[C@@H](O)[C@H]2O)cc1", "Class assignment": "rule met"}

// query Hi there! Is Kd for N#Cc1c(NCc2ccccc2)n([C@@H]2O[C@H](CO)[C@@H](O)[C@H]2O)c2ncnc(N)c12 below 4 µM, do you know?
// result rule met

// query Problem: For the compound Nc1ncnc2c1nc(NCc1ccc(Cl)cc1)n2[C@@H]1O[C@H](CO)[C@@H](O)[C@H]1O , is Kd under 4 µM?
// result rule met

// query Does Nc1ncnc2c1nc(NCc1ccc(F)cc1)n2[C@@H]1O[C@H](CO)[C@@H](O)[C@H]1O have Kd strictly under 4 µM?
// result rule met

====

# System: Heat shock cognate 71 kDa protein (Homo sapiens, UniProt P11142)
# Sequence (P11142 whole entry, the tested form may be a part): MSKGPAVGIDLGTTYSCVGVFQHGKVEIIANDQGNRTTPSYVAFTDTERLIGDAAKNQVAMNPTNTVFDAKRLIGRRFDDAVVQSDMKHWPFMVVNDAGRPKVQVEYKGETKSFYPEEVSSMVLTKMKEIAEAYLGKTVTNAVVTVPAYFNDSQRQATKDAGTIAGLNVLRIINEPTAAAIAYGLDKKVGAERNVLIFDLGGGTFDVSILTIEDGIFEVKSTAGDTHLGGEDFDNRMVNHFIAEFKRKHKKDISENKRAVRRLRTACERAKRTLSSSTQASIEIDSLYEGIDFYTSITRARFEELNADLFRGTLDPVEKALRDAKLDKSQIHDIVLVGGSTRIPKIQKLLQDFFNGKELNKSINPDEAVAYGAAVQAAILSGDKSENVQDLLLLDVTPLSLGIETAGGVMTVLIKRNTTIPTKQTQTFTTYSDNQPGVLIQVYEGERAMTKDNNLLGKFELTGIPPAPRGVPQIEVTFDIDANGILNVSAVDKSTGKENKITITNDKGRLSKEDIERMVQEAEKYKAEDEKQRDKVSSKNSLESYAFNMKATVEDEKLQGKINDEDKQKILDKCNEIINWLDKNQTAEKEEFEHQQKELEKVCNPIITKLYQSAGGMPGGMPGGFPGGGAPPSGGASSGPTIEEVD
# Assay details: Binding affinity to human truncated HSC70 NBD (1 to 381 residues) by SPR analysis
# Measurement parameters: read-out: Kd
Reported property: pKd
Note on units: pKd is unitless, being -log10 of a concentration expressed in mol/L.

{"Compound": "Nc1ncnc2c1ncn2[C@@H]1O[C@H](CO)[C@@H](O)[C@H]1O", "pKd": 3.96}
{"Compound": "Nc1ncnc2c1ncn2[C@@H]1O[C@H](COP(=O)(O)OP(=O)(O)O)[C@@H](O)[C@H]1O [ADENOSINE DIPHOSPHATE]", "pKd": 6.49}
{"Compound": "CNc1c(C#N)c2c(N)ncnc2n1[C@@H]1O[C@H](CO)[C@@H](O)[C@H]1O", "pKd": 5.48}

pKd reported for this compound Nc1ncnc2c1nc(NCc1ccc(Cl)c(Cl)c1)n2[C@@H]1O[C@H](CO)[C@@H](O)[C@H]1O : 5.46

Short answer for Nc1ncnc2c1nc(NCc1ccccc1)n2[C@@H]1O[C@H](CO)[C@@H](O)[C@H]1O : pKd was 5.85

Reported pKd for CNc1nc2c(N)ncnc2n1[C@@H]1O[C@H](C)[C@@H](O)[C@H]1O was 4.57

Entry Nc1ncnc2c1nc(NCc1ccc3ncccc3c1)n2[C@@H]1O[C@H](CO)[C@@H](O)[C@H]1O — recorded pKd = 6.14

Value of measured pKd for the entry CNc1c(C(N)=O)c2c(N)ncnc2n1[C@@H]1O[C@H](CO)[C@@H](O)[C@H]1O : 4.52

The compound identified as C[C@H]1O[C@@H](n2cnc3c(N)ncnc32)[C@H](O)[C@@H]1O registered its pKd at 3.89
